experiment: MM1S myeloma cell viability, profiling panel, resazurin fluorescence, basal, 24 h, PK04 Diversity Set (AID 1174); details: higher = more signal, called active from +8 up or from −8 down;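 note: MM1S multiple myeloma cell line; test concentration not given here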
Hi there, I'd appreciate the recorded z-score for every entry that follows.
One number for each entry.

molecule=O=C1[C@H]2C=C(Br)[C@H](C[C@@H]2OCCCCO)[C@@]12CO2 measvalue=-0.718
molecule=C=C(CCCC)C(=O)CC[C@H](OC(C)=O)c1cccc(OCCO)c1 measvalue=-0.602
molecule=O=C1O[C@H](c2ccccc2)[C@H](c2ccccc2)N2[C@H]1[C@@H](C(=O)NC[C@H](O)c1ccccc1)[C@]1(C(=O)Nc3ccccc31)[C@H]2c1ccc(OCCO)cc1 measvalue=-2.05
molecule=COc1ccc(C(=O)Nc2ccc(CN3C(=O)[C@@]4(O[C@@H](CCO)[C@H]([Si](C)(C)c5ccc(OC)cc5)[C@H]4C)c4ccccc43)cc2)cc1 measvalue=-9.13
molecule=COCCOC(=O)N1C(=O)[C@@]2(c3ccccc31)[C@H](c1ccccc1OCCO)N1[C@H](c3ccccc3)[C@H](c3ccccc3)OC(=O)[C@H]1[C@@H]2C(=O)Nc1nc2ccccc2s1 measvalue=-0.442

Record z-score for all entries; do not skip any.
1. CCCC=C(CCC)[C@@H](NS(=O)(=O)c1cccs1)c1ccc(C(=O)OC)cc1
2. CN(C)CCCCCCNC(=O)[C@@H]1C[C@@H]2C(=O)N[C@@H](CCCCN)C(=O)N2[C@@H]1c1cccc(OCCO)c1
3. CN(C)C(=O)[C@]1(Cc2ccccc2N=[N+]=[N-])N=C(c2ccc(OCCCO)cc2)O[C@@H]1c1ccccc1
4. COc1ccc([Si](C)(C)[C@H]2[C@H](CCO)O[C@@]3(C(=O)N(Cc4ccc(N5C(=O)COc6ccccc65)cc4)c4ccccc43)[C@@H]2C)cc1
5. CC[C@@H]1C=C(C(=O)O)[C@H](c2ccco2)N1S(=O)(=O)c1ccc(C)cc1
6. O=C1OCCC/C=C\[C@H]2OC34C=CCN(Cc5ccccc5)C(=O)[C@H]3N(CCCCCCO)C(=O)[C@@H]4C12 (stereo partly drawn)
7. C=CCC(OC(C)=O)[C@@H]1[C@@H](N(Cc2ccc(-c3ccccc3)cc2)C(=O)Cc2ccc(F)cc2)c2cc(OCCCO)ccc2N1C(=O)c1ccc(-c2ccccc2)cc1 (stereo partly drawn)

// result
1: 1.18; 2: 0.364; 3: -0.597; 4: -4.21; 5: -0.283; 6: -0.549; 7: 1.4

Record z-score for all entries; do not skip any.
1. CC1(C)[C@@H]2CC(C(O)C3C=CC4C(=O)N(c5ccccc5)C(=O)C4N3Nc3ccccc3)=C[C@H]1C2 (stereo partly drawn)
2. O=C(NCc1ccccc1)[C@@H]1c2ccccc2C(=O)N(CC23CC4CC(CC(C4)C2)C3)[C@H]1c1ccc(CO)cc1
3. O=C(NCC(F)(F)F)[C@@H]1c2ccccc2C(=O)N(C2CCCCC2)[C@H]1c1ccc(CO)cc1
4. O=C1OCCC/C=C\[C@H]2OC34C=CCN(Cn5nnc6ccccc65)C(=O)[C@H]3N(CCO)C(=O)[C@@H]4C12 (stereo partly drawn)
5. O=C(NCc1ccccc1)[C@@]1(CCS(=O)(=O)c2ccccc2)N=C(c2ccc(OCCCO)cc2)O[C@H]1c1ccccc1

// result
[-0.852, -1.12, -0.435, 0.158, -0.705]

Record z-score for all entries; do not skip any.
1. C=CCOC(=O)[C@H]1[C@@H]2C(=O)O[C@@H](c3ccccc3)[C@@H](c3ccccc3)N2[C@@H](c2ccc(OCCOC(=O)[C@H]3C[C@H]4C(=O)N5CCC[C@H]5C(=O)N4[C@H]3c3ccc(O)cc3)cc2)[C@]12C(=O)Nc1ccc(I)cc12
2. C=CCNC(=O)[C@@H]1[C@H]2C(=O)O[C@H](c3ccccc3)[C@H](c3ccccc3)N2[C@H](c2ccccc2OCCO)[C@@]12C(=O)N(C(=O)OCCOC)c1ccc(C#CCNC(N)=O)cc12
3. COc1ccc([Si](C)(C)[C@H]2[C@H](CC(=O)N3CCC[C@H]3CO)O[C@@]3(C(=O)N(Cc4cccc(N5C(=O)c6cccc7cccc5c67)c4)c4ccccc43)[C@@H]2C)cc1
4. O=C(NCc1ccccc1)[C@@]1(Cc2ccccc2)N=C(c2ccc(OCCCO)cc2)O[C@H]1c1ccccc1
5. CN1C2C=C(CCCO)C(C3C(=O)N(C(N)=O)C(=O)C32)C1c1ccc(CN2CCCC2)cc1 (stereo not drawn)
6. CN1C(=O)C2C=CC(C(O)Cc3ccccc3)N(Nc3ccccc3)C2C1=O (stereo not drawn)

// result
1. -0.941
2. -0.0716
3. -0.712
4. -1.67
5. -0.508
6. -0.808

Record z-score for all entries; do not skip any.
1. O=C(O)[C@@]1(CCS(=O)(=O)c2ccccc2)COC(c2ccc(OCCCO)cc2)=N1
2. COC(=O)[C@@]1(Cc2ccc(F)cc2)[C@H]2c3cc(C(=O)N4CCCC4)n(Cc4cc(C)n(C)n4)c3C[C@H]2CN1C(=O)c1ccccc1

// result
1. -0.21
2. -0.642

Record z-score for all entries; do not skip any.
1. O=C1O[C@H](c2ccccc2)[C@H](c2ccccc2)N2[C@H]1[C@@H](C(=O)Nc1nc3ccccc3s1)[C@]1(C(=O)Nc3ccc(C#CCCO)cc31)[C@H]2c1ccc(OCCO)cc1
2. CC(=O)N1Cc2ccccc2C[C@@]2(COC(c3ccc(OCCCO)cc3)=N2)C1=O
3. CC1CC/C=C\[C@H]2OC34C=CCN(c5ccc(Cl)cc5)C(=O)[C@H]3N(CCO)C(=O)[C@]4(C)C2C(=O)O1 (stereo partly drawn)

// result
0.527
-0.15
-1.13
